# Measured on: myeloperoxidase (Homo sapiens, UniProt P05164)
# Sequence (P05164 49-745): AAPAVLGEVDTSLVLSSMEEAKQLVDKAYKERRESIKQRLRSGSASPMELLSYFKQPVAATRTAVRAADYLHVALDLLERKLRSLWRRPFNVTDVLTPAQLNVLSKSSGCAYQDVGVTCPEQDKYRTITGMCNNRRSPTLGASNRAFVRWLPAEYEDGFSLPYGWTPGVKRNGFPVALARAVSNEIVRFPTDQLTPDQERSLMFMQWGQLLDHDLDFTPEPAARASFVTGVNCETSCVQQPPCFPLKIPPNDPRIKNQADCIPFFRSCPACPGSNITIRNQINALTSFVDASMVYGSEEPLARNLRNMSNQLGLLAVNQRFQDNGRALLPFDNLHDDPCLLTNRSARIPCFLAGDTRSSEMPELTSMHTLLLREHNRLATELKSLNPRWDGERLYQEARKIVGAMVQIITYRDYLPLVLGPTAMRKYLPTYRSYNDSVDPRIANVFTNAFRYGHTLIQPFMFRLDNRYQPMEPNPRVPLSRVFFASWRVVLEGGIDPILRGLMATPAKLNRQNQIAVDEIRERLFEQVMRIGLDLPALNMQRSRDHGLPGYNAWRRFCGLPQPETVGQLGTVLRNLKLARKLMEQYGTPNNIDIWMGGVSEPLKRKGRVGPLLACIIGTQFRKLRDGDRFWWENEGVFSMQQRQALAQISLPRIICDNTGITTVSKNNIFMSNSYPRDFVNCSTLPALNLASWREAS
# Experimental protocol: MPO Chlorination Assay (APF Assay)
# Type: biochemical
# Measurement parameters: potency range class, read-out: APF Assay IC50 value
pIC50: −log10 of the molar value.

| Molecule | pIC50 |
| --- | --- |
| Nc1cc(C(CCCN[C@H]2CC[C@H](c3ccccc3)CC2)c2ccccc2)c2nn[nH]c2n1 (stereo partly shown) | 6.00 to 7.00 |
| Nc1cc(C(CCNCc2ccc3ccccc3c2)c2ccccc2)c2nn[nH]c2n1 (stereo not shown) | 7.00 to 9.00 |
| COc1ccc2c(c1)CC[C@H]2NCCC(c1ccccc1)c1cc(N)nc2[nH]nnc12 (stereo partly shown) | 6.00 to 7.00 |
| Nc1cc([C@H](CCCN2[C@@H]3CC[C@H]2C[C@](O)(c2ccc(Cl)cc2)C3)c2ccccc2)c2nn[nH]c2n1 | 7.00 to 9.00 |
| Nc1cc(C(CCCN2CCC(c3ccccc3)c3ccccc32)c2ccccc2)c2nn[nH]c2n1 (stereo not shown) | 7.00 to 9.00 |
| Nc1cc([C@H](CCNC23CCC(c4ccccc4)(CC2)C(=O)C3)c2ccccc2)c2nn[nH]c2n1 | 7.00 to 9.00 |
| Nc1cc(C(CCN[C@H]2CC[C@H](c3ccc(Cl)cc3)CC2)c2ccccc2)c2nn[nH]c2n1 (stereo partly shown) | 7.00 to 9.00 |
| Nc1cc(C(CCNC(Cc2ccccc2)c2ccccc2)c2ccccc2)c2nn[nH]c2n1 (stereo not shown) [Example 47] | 6.00 to 7.00 |
| Nc1cc(C(CCCN2CCC(c3ccccc3)C2)c2ccccc2)c2nn[nH]c2n1 (stereo not shown) | 6.00 to 7.00 |
| Nc1cc(C(CCNC2CCC(Cc3ccccc3)(c3ccccc3)CC2)c2ccccc2)c2nn[nH]c2n1 (stereo not shown) | 7.00 to 9.00 |
| Nc1cc(C(CCN[C@H]2CC[C@H](c3ccccc3)CC2)c2cccc(CO)c2)c2nn[nH]c2n1 (stereo partly shown) | 7.00 to 9.00 |
| NC(=O)CN(CC[C@H](c1ccccc1)c1cc(N)nc2[nH]nnc12)[C@H]1CC[C@H](c2ccccc2)CC1 | 7.00 to 9.00 |
| CC1C[C@H](NCCC(c2ccccc2)c2cc(N)nc3[nH]nnc23)c2ccccc21 (stereo partly shown) [Example 95] | 7.00 to 9.00 |
| Nc1cc([C@H](CCNC23CCC(c4ccccc4)(CC2)C(O)C3)c2ccccc2)c2nn[nH]c2n1 (stereo partly shown) | 7.00 to 9.00 |
| COc1ccncc1[C@H]1CC[C@H](NCCC(c2ccccc2)c2cc(N)nc3[nH]nnc23)CC1 (stereo partly shown) | 6.00 to 7.00 |
| Nc1cc([C@H](CC(=O)NC2CCC(c3ccccc3)c3ccccc32)c2ccccc2)c2nn[nH]c2n1 (stereo partly shown) | 6.00 to 7.00 |
| Nc1cc(C(CCNCc2cccc3ccccc23)c2ccccc2)c2nn[nH]c2n1 (stereo not shown) | 7.00 to 9.00 |
| Nc1cc([C@H](CC(=O)NC23CCC(c4ccccc4)(CC2)CC3)c2cccc(O)c2)c2nn[nH]c2n1 | 7.00 to 9.00 |
| Nc1cc([C@H](CCCN2CCC3(CC2)NC(=O)Nc2ccccc23)c2ccccc2)c2nn[nH]c2n1 | 7.00 to 9.00 |
| Nc1cc([C@H](CC(=O)NC23CCC(c4ccccc4)(CC2)CC3)c2ccccc2)c2nn[nH]c2n1 | 7.00 to 9.00 |
| Nc1cc(C(CCN2CCC(Cc3ccccc3)CC2)c2ccccc2)c2nn[nH]c2n1 (stereo not shown) | 7.00 to 9.00 |
| Nc1cc(C(CCN[C@@H](CO)CCCc2ccccc2)c2ccccc2)c2nn[nH]c2n1 (stereo partly shown) | 7.00 to 9.00 |
| Nc1cc(C(CCNCC(c2ccccc2)c2ccccc2)c2ccccc2)c2nn[nH]c2n1 (stereo not shown) | 7.00 to 9.00 |
| Nc1cc(C(CCN[C@H]2CC[C@H](c3ccccc3)CC2)c2cccc(Cl)c2)c2nn[nH]c2n1 (stereo partly shown) | 7.00 to 9.00 |
| COC1CC2(c3ccccc3)CCC1(NCC[C@H](c1ccccc1)c1cc(N)nc3[nH]nnc13)CC2 (stereo partly shown) | 7.00 to 9.00 |
| N#Cc1cccc(C(CCNC23CCC(c4ccccc4)(CC2)CC3)c2cc(N)nc3[nH]nnc23)c1 (stereo not shown) | 7.00 to 9.00 |
| Nc1cc([C@H](Cc2nc3ccccc3o2)c2ccccc2)c2nn[nH]c2n1 | 6.00 to 7.00 |
| Nc1cc(C(CCNC(=O)c2ccccc2)c2ccccc2)c2nn[nH]c2n1 (stereo not shown) | 5.00 to 6.00 |
| Cn1c(C[C@H](c2ccccc2)c2cc(N)nc3[nH]nnc23)nc2ccc(-c3ccccc3)cc21 | 6.00 to 7.00 |
| Nc1cc(C(CCCN2CC(c3ccc(F)cc3)c3ccccc32)c2ccccc2)c2nn[nH]c2n1 (stereo not shown) | 5.00 to 6.00 |
| CN(C)C(=O)CN(CC[C@H](c1ccccc1)c1cc(N)nc2[nH]nnc12)C12CCC(c3ccccc3)(CC1)CC2 | 7.00 to 9.00 |

---

# Measured on: UniProt:P05164
# Experimental protocol: MPO Peroxidation Assay (Amplex Red Assay)
# Assay type: biochemical
# Measurement parameters: potency range class, read-out: Amplex Red Assay IC50 value
pIC50: −log10 of the molar value.

| Molecule | pIC50 |
| --- | --- |
| COc1ccncc1[C@H]1CC[C@H](NCCC(c2ccccc2)c2cc(N)nc3[nH]nnc23)CC1 (stereo partly shown) [Example 137] | 5.00 to 6.00 |
| Nc1cc(C(CCNC23CCC(c4ccccc4)(CC2)CC3O)c2ccccc2)c2nn[nH]c2n1 (stereo not shown) [Example 152] | 7.00 to 9.00 |
| Nc1cc(C(CCN[C@H]2CC[C@H](c3ccccc3)CC2)c2cccc(Cl)c2)c2nn[nH]c2n1 (stereo partly shown) [Example 162] | 6.00 to 7.00 |
| Nc1cc(C(CCCN2CCC3(CC2)OCc2ccccc23)c2ccccc2)c2nn[nH]c2n1 (stereo not shown) [Example 210] | 6.00 to 7.00 |
| CC(C)(C)C1CCC(NCCC(c2ccccc2)c2cc(N)nc3[nH]nnc23)CC1 (stereo not shown) [Example 96] | 5.00 to 6.00 |
| Cn1c(C[C@H](c2ccccc2)c2cc(N)nc3[nH]nnc23)nc2ccc(-c3ccccc3)cc21 [Example 257] | 5.00 to 6.00 |
| Nc1cc(C(CCN[C@H]2CC[C@H](c3ccccc3)CC2)c2cccc(S(N)(=O)=O)c2)c2nn[nH]c2n1 (stereo partly shown) [Example 165] | 6.00 to 7.00 |
| Nc1cc([C@H](CC(=O)NC23CCC(c4ccccc4)(CC2)C(O)C3)c2ccccc2)c2nn[nH]c2n1 (stereo partly shown) [Example 201] | 6.00 to 7.00 |
| Nc1cc(C(Cc2ccccn2)c2ccccc2)c2nn[nH]c2n1 (stereo not shown) [Example 38] | 6.00 to 7.00 |
| Nc1cc(C(Cc2ccc(CO)cc2)c2ccccc2)c2nn[nH]c2n1 (stereo not shown) [Example 224] | 7.00 to 9.00 |
| Nc1cc(C(CCN[C@H]2CCc3ccc(F)cc32)c2ccccc2)c2nn[nH]c2n1 (stereo partly shown) [Example 57] | 6.00 to 7.00 |
| Nc1cc(C(Cc2ccccc2F)c2ccccc2)c2nn[nH]c2n1 (single isomer, unassigned) [Example 9] | 6.00 to 7.00 |
| Nc1cc(C(CCN[C@H]2CCc3cc(F)ccc32)c2ccccc2)c2nn[nH]c2n1 (stereo partly shown) [Example 58] | 6.00 to 7.00 |
| Nc1cc(C(CCN[C@@H]2CCc3cc(F)ccc32)c2ccccc2)c2nn[nH]c2n1 (stereo partly shown) [Example 61] | 6.00 to 7.00 |
| Nc1cc(C(CCNC2CCC(Cc3ccccc3)(c3ccccc3)CC2)c2ccccc2)c2nn[nH]c2n1 (stereo not shown) [Example 126] | 5.00 to 6.00 |
| Nc1cc(C(CCNC2CCCc3ccccc32)c2ccccc2)c2nn[nH]c2n1 (stereo not shown) [Example 28] | 7.00 to 9.00 |
